Consider the following molecules; for each one, report its z-score.
Protocol details: blood-stage malaria parasite viability loss – strain 3D7, DAPI fluorescence, 100 nL, primary screen (AID 1184);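 also: parasites grown inside human red blood cells in medium with human serum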
Run conditions: P. falciparum 3D7 growth, 3 d, higher = more signal
API doc: respond with a numeric literal and nothing else, no unit.

Data request: Look up z-score for this molecule: `C#CCN(Cc1ccccc1Br)[C@H](/C=C/c1ccccc1)[C@@H](O)Cc1ccccc1`
Data returned: -0.717

Data request: Suppose we examine the molecule `CC[C@@H]1O[Si](C(C)C)(C(C)C)c2c1cc(-c1cc(C)c(OC)c(C)c1)nc2-c1ccc(Oc2ccccc2)cc1` ; what z-score value has been reported?
Data returned: 0.0977

Data request: Sample `CC(C)N1C(=O)c2ccccc2[C@@H](C(=O)NCCN2CCOCC2)[C@@H]1c1ccc(CO)cc1` — what was its z-score?
Data returned: -0.22

Data request: What value of z-score has been recorded for this entry: CCCCCCCCCCC(O)C1C=CC2C(=O)N(c3ccccc3)C(=O)C2N1Nc1ccc(C#N)cc1 (centres undefined)
Data returned: -0.562

Data request: If you can, please state the reported z-score value of `CC(C)[Si](C#C[Si](C(C)C)(C(C)C)C(C)C)(O[C@H](c1ccccc1)c1cn(Cc2ccccc2)nn1)C(C)C` .
Data returned: -0.122

Data request: # z-score lookup, item `COCCOC(=O)N1C(=O)[C@@]2(c3cc(C#CCCO)ccc31)[C@H](c1ccc(OCCO)cc1)N1[C@H](c3ccccc3)[C@H](c3ccccc3)OC(=O)[C@H]1[C@@H]2C(=O)Nc1nc2ccccc2s1`
Data returned: 0.335

Data request: Reported z-score, molecule CN(C)c1ccc(C(O)C2C=CC3C(=O)NC(=O)C3N2Nc2ccccn2)cc1 (centres undefined) : ____
Data returned: 0.597

Data request: # z-score lookup, item COc1cc(NN2C(C(O)c3ccco3)C=CC3C(=O)N(C)C(=O)C32)cc(OC)c1OC (centres undefined)
Data returned: -0.188

Data request: Tell me the measured z-score of `CCCN1C(=O)[C@@]2(Cc3ccccc31)N=C(c1ccc(OCCCO)cc1)O[C@H]2c1ccccc1` , please.
Data returned: -1.65

Data request: z-score lookup needed for `CN(C)C(=O)[C@]1(CCC(=O)OC(C)(C)C)N=C(c2ccc(OCCCO)cc2)O[C@@H]1c1ccccc1CN=[N+]=[N-]` , thanks.
Data returned: -2.39

Data request: Any idea what z-score was measured for `C#CCN([C@@H](Cc1ccccc1)C(=O)OC)[C@@H](/C=C/C1CC1)[C@H](O)Cc1ccccc1` ?
Data returned: -1.12

Data request: Query: z-score; subject: `CCCNC(=O)[C@@]1(C)c2ccccc2C(=O)N(c2ccc(C)cn2)[C@H]1c1ccc(CO)cc1`
Data returned: 1.01

Data request: Returns the measured z-score for the input molecule. Input: O=C1NC(=O)C2C1C=CC(C(O)c1ccco1)N2Nc1ccc(Cl)cc1Cl (centres undefined)
Data returned: -0.461

Data request: What z-score value was documented for this molecule, `CCCCC=C[C@@H](NC(=O)OCc1ccccc1Cl)c1ccccc1` ?
Data returned: -1.37

* * *

Protocol details: S6 kinase pathway phospho-S6 level changes – cell-based, A549, cytoblot, luminescence, serum-stimulated, primary screen (AID 1158);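 also: serum-stimulated A549 lung adenocarcinoma cells; signal is phosphorylated S6 detected by cytoblot immunostaining with HRP secondary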
Run conditions: 5 h, higher = more signal
Record rule met whenever z-score is at 0.03 or higher; record rule not met when lower.

Data request: In plain terms: is recorded z-score at least 0.03 for `COc1ccc(CCNC(=O)[C@@H]2c3ccccc3C(=O)N(C3CCCCC3)[C@H]2c2ccc(CO)cc2)cc1` ?
Data returned: rule met

Data request: Could you verify whether the entry `O=C1N(CCS(=O)(=O)c2ccccc2)c2ccccc2[C@H]2OC(c3ccc(OCCCO)cc3)=N[C@@]12Cc1ccccc1` shows z-score of no less than 0.03?
Data returned: rule met

Data request: Could you verify whether the entry `Cc1ccc(S[C@]2(C(=O)NCC(F)(F)F)CC(=O)N(Cc3cc(C(F)(F)F)cc(C(F)(F)F)c3)[C@@H]2c2ccc(CO)cc2)cc1` shows z-score of no less than 0.03?
Data returned: rule not met

Data request: Reported z-score reaches at least 0.03 for COC(=O)C1(CC(C)C)C=C2C(=C(c3ccccc3)C(=O)C2C)CN1 (stereo unspecified) ?
Data returned: rule met

Data request: Item C=CCC(OC(C)=O)[C@@H]1[C@@H](N(Cc2ccc(-c3cccc(C(F)(F)F)c3)o2)C(=O)c2ccc(-c3ccccc3)cc2)c2cc(OCCCO)ccc2N1C(=O)Cc1ccc2ccccc2c1 (stereo partly specified) with z-score of 0.03 or above?
Data returned: rule not met

Data request: Does O=C(C1N=C(c2ccc(OCCCO)cc2)N(c2ccccc2)O1)N1CCCCC1 (stereo unspecified) have a reported z-score of at least 0.03?
Data returned: rule not met

Data request: Given the entry CC(C)C(CO)N1C(=O)[C@@H]2C3C(=O)OCCC/C=C\[C@H]3OC23C=CCN(c2ccc4ccccc4c2)C(=O)[C@@H]13 (stereo partly specified) , answer whether its z-score meets or surpasses 0.03.
Data returned: rule not met

Data request: API: above_or_equal(metric=z-score, cutoff=0.03) for item COC(=O)C1=CC(CCCO)=CC(c2cccs2)N(Cc2cccc(OC(F)(F)F)c2)C=C1C(=O)OC (stereo unspecified)
Data returned: rule not met

Data request: Threshold query (z-score >= 0.03) on `O[C@@H](Cc1ccccc1)[C@@H](/C=C/C1CC1)N(CC#Cc1ccccc1)Cc1ccccc1Br`
Data returned: rule met

Data request: Textbook exercise: given the entry `C=C(C(=O)CC[C@H](OC(=O)c1ccccc1-c1ccccc1C(=O)O)c1cccc(OCCO)c1)C(C)C` , state whether its z-score is greater than or equal to 0.03.
Data returned: rule met

Data request: Is it the case that `NC(=O)NCC#Cc1ccc2c(c1)[C@]1(C(=O)N2)[C@H](c2ccccc2OCCO)N2[C@H](c3ccccc3)[C@H](c3ccccc3)OC(=O)[C@H]2[C@@H]1C(=O)O` has z-score reaching or exceeding 0.03?
Data returned: rule met

* * *

Protocol details: growth of efflux-deficient E. coli DRC39 – strain DRC39, OD650, 48 h, E. coli filamentation inducers, primary screen (AID 1179);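 also: screen aims at cell division blockers that make cells filament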
Run conditions: E. coli DRC39 delta-acrAB growth, higher = more signal, called active from +8 up or from −8 down
Quick rule for you: z-score at -0.07 or higher means y, lower means n.

Data request: Could you verify whether the entry `C=CCOC(=O)[C@@H]1[C@H]2C(=O)O[C@H](c3ccccc3)[C@H](c3ccccc3)N2[C@H](c2ccc(OCCOC(=O)[C@@H]3C[C@@H]4C(=O)N[C@@H](CCCC[N+](C)(C)C)C(=O)N4[C@@H]3c3ccc(O)cc3)cc2)[C@@]12C(=O)Nc1ccc(I)cc12` shows z-score of no less than -0.07?
Data returned: n

Data request: Can CCN(CC)c1ccc(N2CC=CC34O[C@@H]5/C=C\CCCOC(=O)C5[C@H]3C(=O)N(C(C)CO)[C@@H]4C2=O)cc1 (some centres not stated) be said to have z-score at or above -0.07?
Data returned: y

Data request: Hello, I need to know if `[N-]=[N+]=Nc1ccccc1[C@@H]1OC(c2ccc(OCCCO)cc2)=N[C@]1(Cc1ccccc1)C(=O)N1CCCCC1` has measured z-score not below -0.07. Thanks!
Data returned: y

Data request: # check: z-score of `C=C[C@H](C)[C@H](OC(=O)Nc1ccc(SC)cc1)c1ccc(OCCO)cc1` is greater than or equal to -0.07
Data returned: n

Data request: Record `NCCCCCNC(=O)[C@@H]1C[C@@H]2C(=O)N[C@@H](CCCCN)C(=O)N2[C@@H]1c1ccc(O)cc1` ; criterion: z-score no lower than -0.07. Met?
Data returned: n

Data request: Could you tell me if the measured z-score of CCCCC[C@H]1OC[C@@]23C=C(Br)[C@@H](CC12)[C@@]1(CO1)C3=O (some centres not stated) reaches -0.07 or more?
Data returned: n

Data request: Record `COc1ccc(CCNC(=O)[C@@]2(c3ccc([N+](=O)[O-])cc3)CC(=O)N(C3CCCCC3)[C@@H]2c2ccc(CO)cc2)cc1` ; criterion: z-score no lower than -0.07. Met?
Data returned: y

Data request: Textbook exercise: given the entry `COc1ccc([Si](C)(C)[C@@H]2[C@@H](CCO)O[C@]3(C(=O)N(Cc4ccccc4)c4ccc(NC(=O)[C@H](C)O)cc43)[C@H]2C)cc1` , state whether its z-score is greater than or equal to -0.07.
Data returned: y

Data request: # bool: z-score of `O=C(NCCN1CCOCC1)[C@@H]1c2ccccc2C(=O)N(Cc2ccccc2Cl)[C@H]1c1ccc(CO)cc1` >= -0.07
Data returned: y

Data request: API: above_or_equal(metric=z-score, cutoff=-0.07) for item `CN(C)C(=O)[C@]1(CCC(=O)OC(C)(C)C)N=C(c2ccc(OCCCO)cc2)O[C@@H]1c1ccccc1CN=[N+]=[N-]`
Data returned: n

Data request: Kindly determine if z-score recorded for `[N-]=[N+]=NCc1ccccc1C[C@@]1(C(N)=O)N=C(c2ccc(OCCCO)cc2)O[C@@H]1c1ccccc1` is above or exactly -0.07.
Data returned: n

Data request: Kindly determine if z-score recorded for `COc1ccccc1CN1C(=O)c2ccccc2[C@](Cc2ccccc2I)(C(=O)O)[C@@H]1c1ccc(CO)cc1` is above or exactly -0.07.
Data returned: y
